- ASSAYED TARGET: cellular BACE1 in CHOK1-huAPP cells
- EXPERIMENT DESCRIPTION: cell-based or functional assay
READOUT KIND: IC50 (nM)
Give your result in nM as a bare value.

Given the entry hu2H8v27 (antibody, V domains shown, humanized; also called hu2H8_HC3 + hu2H8_LC5) VH: QVQLVQSGAEVKKPGASVKVSCKASGYTFTNFWIHWLRQAPGQGLEWMGMIDPSDSYTKYNQKFKARVTMTVDTSTSTTYMELSSLRSEDTAVYYCARSGVAFPYWGQGTLVTVSS VL: DIQMTQSPSSLSASVGDRVTITCKASQDVGRNVAWYQQKPGKSPKSLIYSASHRYSGVPSRFSGSGSGTDFTLTISSLQPEDFATYFCQQYNSYPYTFGQGTKVEIK , report its measured IC50.
16.5

All figures here come from patent US20210070881A1.
